System: SN12C renal
Experiment: NCI tumour cell line growth inhibition, 48 h
Listing of recorded TGI by entry.

Compound: CC(=O)OCCn1cnc2nc(Nc3ccccc3)nc(Cl)c21
TGI: > 100 µM
--
Compound: COc1ccc(OC)c(NC(=O)C(=O)NNC(=O)c2sc(NNC(C)=O)nc2C)c1
TGI: > 100 µM
--
Compound: O=C(O)c1nc(-c2ccccc2)ncc1-c1nnnn1-c1ccccc1
TGI: > 100 µM
--
Compound: Cc1cccc(-c2nc3ccc([N+](=O)[O-])cc3c(=O)o2)c1
TGI: > 100 µM
--
Compound: CC(SC(C)C(=O)N/N=C/c1cccc(Cl)c1)C(=O)N/N=C\c1cccc(Cl)c1 (configuration not stated)
TGI: 53.9 µM
--
Compound: O=S1(=O)OCCOS(=O)(=O)C1F
TGI: > 100 µM
--
Compound: O=C1CCCC/C(=C/c2ccccc2)N1
TGI: > 100 µM
--
Compound: S=C(NCc1ccccc1)c1nc[nH]c1C(=S)NCc1ccccc1
TGI: 25 µM
--
Compound: CC1OC2CC(=O)OC2C2=C1C(=O)c1c(O)cccc1C2=O (configuration not stated)
TGI: 0.259 µM
--
Compound: C[C@]12CC[C@H](O)CC1=CC[C@@H]1[C@@H]2CC[C@]2(C)C(=O)[C@@H](N3CCOCC3)C[C@@H]12
TGI: > 100 µM
--
Compound: CNn1c(-c2ccccc2)n[nH]c1=O
TGI: > 100 µM
--
Compound: CC(=O)n1nc(-c2ccccc2)n(/N=C/c2ccc([N+](=O)[O-])cc2)c1=O
TGI: > 100 µM
--
Compound: CNCCCn1cc(C2=C(c3cn(C)c4ccccc34)C(=O)NC2=O)c2ccccc21
TGI: 18.4 µM
--
Compound: C=C(F)C(=O)N1CCN(c2nc(OC[C@@H]3CCCN3C)nc3c2CCN(c2cccc4cccc(Cl)c24)C3)C[C@@H]1CC#N
TGI: 2.83 µM
--
Compound: COC(=O)c1cc2c3ccccc3n(C(C)=O)c2cn1
TGI: > 100 µM
--
Compound: COCCOc1cc(F)c2c(Nc3ccc(NC(=O)Cn4cc(C(C)C)nn4)cc3)ncnc2c1
TGI: > 100 µM
--
Compound: CC[N+](CC)(CCNCC(N)=O)CC(N)=O
TGI: > 10 µM
--
Compound: O=S(=O)(c1ccccc1)n1c2cc3cccnc3nc2c2cccnc21
TGI: > 100 µM
--
Compound: CC(C)(C)OC(=O)NCC(O)CNC(=O)OC(C)(C)C
TGI: > 100 µM
--
Compound: O=C1OC(c2ccccc2)=N/C1=C/C=C/c1ccco1
TGI: > 100 µM
--
Compound: CSc1nc2c(nc(C)c(=O)n2C2OCC(OC(C)=O)C(OC(C)=O)C2OC(C)=O)c(=O)[nH]1 (configuration not stated)
TGI: > 100 µM
--
Compound: C=C(C=O)C1CCC2(C(=O)O)CCC3(C)C(CCC4C5(C)CCC(O)C(C)(C)C5CCC43C)C12 (configuration not stated)
TGI: > 89.9 µM
